Molecular target: UniProt P35414
Assay: biochemical
Conditions: read-out: Activity hAPJ SPA EC50 IP
pEC50: −log10 of the molar value.
Decision: pEC50 >= 8 yields met, all other cases yield not met.

- COc1ncnc(OC)c1-n1c(NS(=O)(=O)[C@@H](C)[C@H](C)c2cnc(C)cn2)nnc1-c1cccnc1: not met
- COc1cccc(-c2nnc(NS(=O)(=O)[C@@H](C)[C@H](OC)c3ncc(C)cn3)n2-c2cccnc2OC)n1 (atropisomer, axis not shown): met
- COc1cccc(-c2nnc(NS(=O)(=O)[C@@H](C)[C@H](O)c3ccc(F)cc3F)n2-c2c(OC)cccc2OC)n1 (single isomer, unassigned) [Example 279.0]: not met
- COc1cccc(-c2nnc(NS(=O)(=O)[C@@H](C)[C@H](OC)c3ncc(C)cn3)n2-c2ccccc2OC)n1 (atropisomer, axis not shown; (P)): met
- COc1cccc(OC)c1-n1c(NS(=O)(=O)[C@@H](C)[C@H](OC)c2ncc(C)cn2)nnc1-c1ccccn1: met
- CO[C@H](c1ncc(C)cn1)[C@H](C)S(=O)(=O)Nc1nnc(-c2cncc(C)c2)n1-c1c(OC(F)F)cccc1OC(F)F: met
- CCOc1cccc(-c2nnc(NS(=O)(=O)[C@@H](C)[C@H](OC)c3ncc(C)cn3)n2-c2c(OC)cccc2OC)n1: met
- COc1cccc(-c2nnc(NS(=O)(=O)[C@@H](C)[C@H](OC)c3ncc(C)cn3)n2-c2ccc(Cl)cc2)n1: not met
- COc1cccc(-c2nnc(NS(=O)(=O)[C@@H](C)[C@H](OC)c3ncc(C)cn3)n2-c2cccc(C)c2C)n1 (atropisomer, axis not shown; (P)): met
- COc1ncnc(OC)c1-n1c(NS(=O)(=O)[C@@H](C)[C@H](C)c2ncc(Cl)cn2)nnc1-c1cccnc1: met
- COc1ncnc(OC)c1-n1c(NS(=O)(=O)[C@@H](C)[C@@H](OC(C)C)c2ncc(C)cn2)nnc1-c1ccccn1: met

###

Target: human APJ receptor (Homo sapiens (Human), UniProt P35414)
Sequence (P35414 whole entry): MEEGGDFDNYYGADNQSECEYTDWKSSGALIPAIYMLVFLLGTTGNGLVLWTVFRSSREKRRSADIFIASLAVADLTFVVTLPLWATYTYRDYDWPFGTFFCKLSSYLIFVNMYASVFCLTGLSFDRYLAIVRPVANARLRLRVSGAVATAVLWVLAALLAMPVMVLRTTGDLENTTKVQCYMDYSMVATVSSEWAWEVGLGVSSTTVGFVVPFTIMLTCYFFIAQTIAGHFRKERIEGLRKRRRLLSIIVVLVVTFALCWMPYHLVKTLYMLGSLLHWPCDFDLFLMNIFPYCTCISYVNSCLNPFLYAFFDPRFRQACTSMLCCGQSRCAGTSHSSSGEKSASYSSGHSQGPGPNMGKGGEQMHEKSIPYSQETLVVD
Test: biochemical
Assay type: biochemical
Conditions: read-out: Activity hAPJ SPA EC50 IP
Okay, here is how we bin by EC50: interval 1 (below 0.2 nM), interval 2 (0.2 nM to below 2 nM), interval 3 (2 nM or more)

• COc1ncnc(OC)c1-n1c(NS(=O)(=O)[C@@H]2C[C@H](OC)CN(c3ncc(F)cn3)C2)nnc1-c1cccnc1 (stereo in doubt) [Example 814.0] = interval 3
• CCO[C@@H](c1ncc(Cl)cn1)[C@H](C)S(=O)(=O)Nc1nnc(-c2cncc(C)c2)n1-c1c(OC)cccc1OC (single isomer, unassigned) [Example 611.0] = interval 1
• Cc1cnc([C@@H](C)[C@H](C)S(=O)(=O)Nc2nnc(-c3cncc(C)c3)n2-c2c(OC(F)F)cccc2OC(F)F)nc1 = interval 2
• COc1cccc(OC)c1-n1c(NS(=O)(=O)[C@@H](C)[C@H](OC)c2ncc(C)cn2)nnc1-c1cccc(OCC(F)(F)F)n1 = interval 1
• COc1cccc(-c2nnc(NS(=O)(=O)CCc3ccc(F)cc3C#N)n2-c2c(OC)ncnc2OC)n1 = interval 2
• COc1cccc(-c2nnc(NS(=O)(=O)[C@@H](C)[C@H](OC)c3ncc(C)cn3)n2-c2ccc3ccccc3c2)n1 = interval 3
• COc1cnc([C@@H](OC)[C@H](C)S(=O)(=O)Nc2nnc(-c3cccc(OC)n3)n2-c2c(OC)cccc2OC)nc1 = interval 1
• COc1cccc(OC)c1-n1c(NS(=O)(=O)[C@@H](C)[C@H](O)c2ncc(F)cn2)nnc1-c1cccnc1 = interval 3
• COc1cccc(-c2nnc(NS(=O)(=O)[C@@H](C)[C@H](C)c3cnc(C)cn3)n2-c2c(F)cccc2F)n1 = interval 2
• COc1cccc(OC)c1-n1c(NS(=O)(=O)[C@@H](C)[C@H](OC)c2ncc(C)cn2)nnc1-c1cccc(N(C)C)n1 = interval 2
• COc1cccc(OC)c1-n1c(NS(=O)(=O)[C@@H](C)[C@@H](OC(C)C)c2ncc(C)cn2)nnc1-c1cccc(C)n1 = interval 1
• Cc1cccc(-c2nnc(NS(=O)(=O)[C@@H](C)[C@H](C)c3ncc(Cl)cn3)n2-c2c(F)cccc2F)n1 = interval 2

###

// log10(EC50) lookup, one value per entry
Molecular target: human APJ receptor (Homo sapiens (Human))
Assay: biochemical
Conditions: read-out: Activity hAPJ SPA EC50 IP
value_kind: log10(EC50) (log10 of the value in µM)

• COc1cccc(OC)c1-n1c(NS(=O)(=O)[C@H](C)[C@@H](OC)c2ncc(Cl)cn2)nnc1-c1cncc(C)c1 (single isomer, unassigned) [Example 558.0] = -1.52
• COc1cccc(OC)c1-n1c(NS(=O)(=O)[C@@H](C)[C@H](OC)c2ncc(Cl)cn2)nnc1-c1cccnc1 [Example 591.0] = -3.68
• CCO[C@@H](c1ncc(C)cn1)[C@@H](C)S(=O)(=O)Nc1nnc(-c2cccnc2)n1-c1c(OC)cccc1OC (single isomer, unassigned) [Example 108.0] = -0.82
• COc1cccc(OC)c1-n1c(NS(=O)(=O)[C@@H](C)[C@H](OC)c2ncc(C)cn2)nnc1-c1cccc(OCC(C)(C)O)n1 [Example 193.0] = -1.21
• COc1cccc(OC)c1-n1c(NS(=O)(=O)[C@@H](C)[C@H](O)c2cnc(C)cn2)nnc1-c1cccnc1 [Example 615.0] = -1.19
• COc1cccc(OC)c1-n1c(NS(=O)(=O)[C@@H](C)[C@H](C)c2cnc(C)cn2)nnc1-c1cccnc1 [Example 198.0] = -2.96

###

Target: human APJ receptor (Homo sapiens (Human))
Test: biochemical
Conditions: read-out: Activity hAPJ SPA EC50 IP
pEC50: −log10 of the molar value.
value_kind: pEC50

* COc1cccc(OC)c1-n1c(NS(=O)(=O)[C@H](C)[C@@H](OC)c2ncc(Cl)cn2)nnc1-c1cncc(C)c1 (single isomer, unassigned) [Example 559.0] | 6.92
* COc1cccc(OC)c1-n1c(NS(=O)(=O)[C@@H](C)[C@H](O)c2nc(C)c(C)s2)nnc1-c1cncc(C)c1 (single isomer, unassigned) [Example 295.0] | 7.01
* COc1cccc(-c2nnc(NS(=O)(=O)[C@@H](C)[C@H](OC)c3ncc(C)cn3)n2-c2cc(C(F)(F)F)cc(C(F)(F)F)c2)n1 | 6.27
* COc1cccc(-c2nnc(NS(=O)(=O)[C@@H](C)[C@H](OC)c3ncc(C)cn3)n2-c2cccc(C(C)=O)c2)n1 | 8.04
* COc1cccc(-c2nnc(NS(=O)(=O)[C@@H](C)[C@H](C)c3ncc(Cl)cn3)n2-c2c(F)cccc2F)n1 | 9.80
* COc1cccc(OC)c1-n1c(NS(=O)(=O)CCc2ccc(F)cc2C#N)nnc1-c1cncc(C)c1 | 9.08
* CCO[C@@H](c1cnc(C)cn1)[C@@H](C)S(=O)(=O)Nc1nnc(-c2cncc(C)c2)n1-c1c(OC)cccc1OC (single isomer, unassigned) [Example 565.0] | 7.00
* COc1cccc(OC)c1-n1c(NS(=O)(=O)CCc2ccc(F)cc2C#N)nnc1-c1cncc(Cl)c1 | 7.92
* CNc1cccc(-c2nnc(NS(=O)(=O)[C@@H](C)[C@H](OC)c3ncc(C)cn3)n2-c2c(OC)cccc2OC)n1 | 9.46
* COC(=O)c1cccc(-n2c(NS(=O)(=O)[C@@H](C)[C@H](OC)c3ncc(C)cn3)nnc2-c2cccc(OC)n2)c1 | 7.92
* COc1cnc([C@@H](O)[C@H](C)S(=O)(=O)Nc2nnc(-c3cncc(C)c3)n2-c2c(OC)cccc2OC)cn1 (single isomer, unassigned) [Example 305.0] | 9.41
* COc1cccc(OC)c1-n1c(NS(=O)(=O)[C@@H](C)[C@H](OC)c2ccc(F)cn2)nnc1-c1cncc(C)c1 (single isomer, unassigned) [Example 353.0] | 7.00

###

Molecular target: human APJ receptor (Homo sapiens (Human), UniProt P35414)
Experiment: biochemical
Details: read-out: Activity hAPJ SPA EC50 IP
value_kind: EC50 (nM)

* COc1cccc(OC)c1-n1c(NS(=O)(=O)[C@H](C)[C@@H](OC)c2ncc(Cl)cn2)nnc1-c1cccc(C)n1 | 11
* COc1cccc(OC)c1-n1c(NS(=O)(=O)[C@@H](C)[C@@H](OCCO)c2ncc(C)cn2)nnc1-c1cncc(C)c1 (single isomer, unassigned) [Example 408.0] | 0.88
* COc1cccc(OC)c1-n1c(NS(=O)(=O)[C@H](C)[C@@H](OC)c2ccc(C#N)cn2)nnc1-c1cncc(C)c1 (single isomer, unassigned) [Example 552.0] | 0.28
* COc1cccc(-c2nnc(NS(=O)(=O)[C@@H](C)[C@H](C)c3ncc(F)cn3)n2-c2ccccc2)n1 | 9.4
* COc1cccc(-c2nnc(NS(=O)(=O)[C@@H](C)[C@H](O)c3ccc(F)cc3)n2-c2c(OC)cccc2OC)n1 (single isomer, unassigned) [Example 286.0] | 0.68
* COc1cccc(-c2nnc(NS(=O)(=O)[C@@H](C)[C@H](OC)c3ncc(C)cn3)n2-c2c(Cl)cccc2Cl)n1 | 0.76

Origin of the recorded values: patent US10058550B2
